TARGET_SYSTEM: EeAChE (Electrophorus electricus)
Construct: purchased Sigma Aldrich
TEST_DETAILS: biochemical
Format: biochemical
CONDITION_LABEL: 10 μM compound; Ellman method
// label = fulfilled if inhibition at 10 µM is not less than 40%, otherwise not fulfilled

molecule="Cc1ccc(-c2c(C#N)c3nc(-c4ccccc4)nn3c3ncnc(N)c23)cc1 [Compound 3b]" qualitative_label=fulfilled
molecule="COc1cccc(-c2c(C#N)c3nc(-c4ccccc4)nn3c3ncnc(N)c23)c1 [Compound 3d]" qualitative_label="not fulfilled"
molecule="N#Cc1c(-c2ccc(O)cc2)c2c(N)ncnc2n2nc(-c3ccccc3)nc12 [Compound 3g]" qualitative_label="not fulfilled"
molecule="N#Cc1c(-c2ccc(Cl)cc2)c2c(N)ncnc2n2nc(-c3ccccc3)nc12 [Compound 3f]" qualitative_label=fulfilled
molecule="N#Cc1c(-c2ccc([N+](=O)[O-])cc2)c2c(N)ncnc2n2nc(-c3ccccc3)nc12 [Compound 3h]" qualitative_label=fulfilled
molecule="CC(C)c1ccc(-c2c(C#N)c3nc(-c4ccccc4)nn3c3ncnc(N)c23)cc1 [Compound 3i]" qualitative_label="not fulfilled"
molecule="N#Cc1c(-c2ccc(Oc3ccccc3)cc2)c2c(N)ncnc2n2nc(-c3ccccc3)nc12 [Compound 3k]" qualitative_label="not fulfilled"
molecule="COc1ccccc1-c1c(C#N)c2nc(-c3ccccc3)nn2c2ncnc(N)c12 [Compound 3e]" qualitative_label="not fulfilled"
molecule="COc1ccc(-c2c(C#N)c3nc(-c4ccccc4)nn3c3ncnc(N)c23)cc1 [Compound 3c]" qualitative_label=fulfilled
molecule="N#Cc1c(-c2ccc(Br)cc2)c2c(N)ncnc2n2nc(-c3ccccc3)nc12 [Compound 3j]" qualitative_label="not fulfilled"

====

TARGET_SYSTEM: EeAChE (Electrophorus electricus, UniProt O42275)
Construct: purchased Sigma Aldrich
Sequence (O42275 24-633): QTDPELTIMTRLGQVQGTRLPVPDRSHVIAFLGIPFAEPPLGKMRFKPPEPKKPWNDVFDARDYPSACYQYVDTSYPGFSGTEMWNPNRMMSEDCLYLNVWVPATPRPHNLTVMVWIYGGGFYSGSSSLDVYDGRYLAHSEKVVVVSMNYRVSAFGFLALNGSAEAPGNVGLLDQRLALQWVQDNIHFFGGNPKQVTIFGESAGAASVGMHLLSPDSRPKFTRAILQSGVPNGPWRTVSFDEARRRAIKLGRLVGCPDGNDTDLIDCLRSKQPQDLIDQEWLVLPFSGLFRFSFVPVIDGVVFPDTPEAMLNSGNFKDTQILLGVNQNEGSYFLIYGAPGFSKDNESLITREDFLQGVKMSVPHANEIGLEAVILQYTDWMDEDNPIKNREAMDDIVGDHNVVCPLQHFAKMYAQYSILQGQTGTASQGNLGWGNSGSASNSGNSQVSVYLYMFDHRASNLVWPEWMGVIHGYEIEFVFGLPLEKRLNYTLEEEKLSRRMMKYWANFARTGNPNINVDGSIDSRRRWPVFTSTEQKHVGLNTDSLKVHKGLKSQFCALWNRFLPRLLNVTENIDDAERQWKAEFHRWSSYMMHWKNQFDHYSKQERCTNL
TEST_DETAILS: biochemical
Assay type: biochemical
CONDITION_LABEL: Ellman method; mean ± SEM
QUANTITY_KIND: IC50 (µM)

item_smiles=Cc1ccc(-c2c(C#N)c3nc(-c4ccccc4)nn3c3ncnc(N)c23)cc1 target_system="EeAChE (Electrophorus electricus, UniProt O42275)" unit_string=µM data_value=1.17
